Voltage-gated inwardly rectifying potassium channel KCNH2 (Homo sapiens, UniProt Q12809) measurements of pIC50, listed per entry.
Sequence (Q12809 whole entry): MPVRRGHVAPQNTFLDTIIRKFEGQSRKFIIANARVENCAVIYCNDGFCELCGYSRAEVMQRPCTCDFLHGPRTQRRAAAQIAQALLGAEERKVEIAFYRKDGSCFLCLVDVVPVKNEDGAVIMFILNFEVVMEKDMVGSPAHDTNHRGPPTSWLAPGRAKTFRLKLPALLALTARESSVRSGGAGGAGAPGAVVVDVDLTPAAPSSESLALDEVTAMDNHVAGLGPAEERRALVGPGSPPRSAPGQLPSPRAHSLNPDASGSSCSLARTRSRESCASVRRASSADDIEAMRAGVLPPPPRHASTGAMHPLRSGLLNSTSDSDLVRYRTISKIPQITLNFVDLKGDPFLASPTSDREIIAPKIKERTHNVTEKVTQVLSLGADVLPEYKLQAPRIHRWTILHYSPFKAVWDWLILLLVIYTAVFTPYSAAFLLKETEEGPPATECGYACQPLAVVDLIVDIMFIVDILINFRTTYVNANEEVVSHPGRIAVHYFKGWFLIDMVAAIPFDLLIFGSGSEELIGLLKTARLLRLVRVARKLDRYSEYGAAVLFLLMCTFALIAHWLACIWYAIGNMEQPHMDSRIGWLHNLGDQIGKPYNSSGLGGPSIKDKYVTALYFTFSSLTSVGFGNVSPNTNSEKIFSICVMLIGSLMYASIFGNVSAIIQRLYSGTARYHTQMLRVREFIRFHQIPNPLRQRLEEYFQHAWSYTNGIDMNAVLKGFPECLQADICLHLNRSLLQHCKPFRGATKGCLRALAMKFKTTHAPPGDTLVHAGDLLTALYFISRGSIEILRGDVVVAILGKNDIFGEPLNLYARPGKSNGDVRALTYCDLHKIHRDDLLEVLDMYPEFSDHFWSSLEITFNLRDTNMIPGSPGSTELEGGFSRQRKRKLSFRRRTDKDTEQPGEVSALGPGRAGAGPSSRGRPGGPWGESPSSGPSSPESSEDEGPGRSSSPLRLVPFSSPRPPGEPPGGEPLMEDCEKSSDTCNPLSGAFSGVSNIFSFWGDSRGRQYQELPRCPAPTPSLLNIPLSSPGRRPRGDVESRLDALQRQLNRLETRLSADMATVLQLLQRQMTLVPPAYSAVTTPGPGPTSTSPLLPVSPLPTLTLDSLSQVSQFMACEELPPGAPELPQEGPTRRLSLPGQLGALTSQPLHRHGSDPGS
pIC50: −log10 of the molar value.

[
  {
    "structure-as-smiles": "COc1nn(C)cc1Nc1ncc(F)c(-c2c[nH]c3c(NC(=O)[C@@H](C)N4CCN(C)CC4)cccc23)n1",
    "subject-of-test": "Voltage-gated inwardly rectifying potassium channel KCNH2 (Homo sapiens, UniProt Q12809)",
    "pIC50": "< 4.48"
  },
  {
    "structure-as-smiles": "Cc1cnc(Nc2cccnc2C)nc1-c1c[nH]c2c(NC(=O)[C@@H](C)N3CCN(C)CC3)cccc12",
    "subject-of-test": "Voltage-gated inwardly rectifying potassium channel KCNH2 (Homo sapiens, UniProt Q12809)",
    "pIC50": "< 4.48"
  },
  {
    "structure-as-smiles": "COc1nn(C)cc1Nc1ncc(C)c(-c2c[nH]c3c(NC(=O)[C@@H](C)N4CCN(C)CC4)cccc23)n1",
    "subject-of-test": "Voltage-gated inwardly rectifying potassium channel KCNH2 (Homo sapiens, UniProt Q12809)",
    "pIC50": "< 4.00"
  }
]

Item: "COc1nn(C)cc1Nc1nccc(-c2c[nH]c3c(NC(=O)[C@@H](C)N4CCN(C)CC4)cccc23)n1" | pIC50: < 4.00
